- System: CYP1A2
- Assay Protocol: CYP1A2 enzyme induction assay in cryopreserved primary human hepatocytes (PHH)
- Type: in vitro ADME
- Measurement Parameters: CYP1A2, PHH; positive in one donor in each of the three laboratories
Where a name gives a salt, the structure may show the parent alone.
Measured Attribute: Induction in vitro

Completed entries (count: 4):
Compound	Tested On	Measured Attribute	Result
CO[C@H]1/C=C/O[C@@]2(C)Oc3c(C)c(O)c4c(O)c(c(/C=N/N5CCN(C)CC5)c(O)c4c3C2=O)NC(=O)/C(C)=C\C=C\[C@H](C)[C@H](O)[C@@H](C)[C@@H](O)[C@@H](C)[C@H](OC(C)=O)[C@@H]1C	CYP1A2	Induction in vitro	No
CC(C)NCC(O)c1ccc(NS(C)(=O)=O)cc1 (centres unmarked) [Sotalol hydrochloride]	CYP1A2	Induction in vitro	No
NC(=O)N1c2ccccc2C=Cc2ccccc21 [Carbamazepine]	CYP1A2	Induction in vitro	No
COCCc1ccc(OCC(O)CNC(C)C)cc1 (centres unmarked)	CYP1A2	Induction in vitro	No

Turning now to a further compound:
[ask] # return recorded Induction in vitro for entry COc1ccc2[nH]c([S+]([O-])Cc3ncc(C)c(OC)c3C)nc2c1 (centres unmarked)
[reply] Yes

* * *

- Test system: CYP3A4
- Assay Protocol: CYP3A4 enzyme induction assay in cryopreserved HepaRG cells (midazolam probe, LC/MS); also: key: 1=Positive=inducer; 0=Negative=non-inducer
- Type: in vitro ADME, human
- Measurement Parameters: HepaRG; Lab 3; batch 36
Counter-ions that a name gives are not always drawn.
Please go through the items and note down their Assigned classification CYP3A4.
One number for each entry.

>>> print(df.to_string())
                                   molecule  numeric_readout
0  CC(C)NCC(O)c1ccc(NS(C)(=O)=O)cc1 (stereo not drawn) [Sotalol hydrochloride]                0
1  O=C1NC(=O)C(c2ccccc2)(c2ccccc2)N1 [Phenytoin sodium]                1
2  NC(=O)N1c2ccccc2C=Cc2ccccc21 [Carbamazepine]                1
3  COCCc1ccc(OCC(O)CNC(C)C)cc1 (stereo not drawn)                0
4  COc1ccccc1Oc1c(NS(=O)(=O)c2ccc(C(C)(C)C)cc2)nc(-c2ncccn2)nc1OCCO [Bosentan hydrate]                1

[ask] Return reported Assigned classification CYP3A4. Input molecule: COc1ccc2[nH]c([S+]([O-])Cc3ncc(C)c(OC)c3C)nc2c1 (stereo not drawn)
[reply] 0

* * *

- Test system: CYP2B6
- Assay Protocol: CYP2B6 enzyme induction assay in cryopreserved primary human hepatocytes (PHH);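 as to Assigned classification CYP2B6: code 1 means positive inducer and 0 means non-inducer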
- Assay type: in vitro ADME
- Measurement Parameters: PHH; Lab 1; batch 4 0 8
Structures can show the parent of a compound that is named as a salt.
I'd be grateful if you could share measured Assigned classification CYP2B6 for these entries.
Numbers only.

Recorded results for 2 compounds are shown here.
In [3]: df
Out[3]:
                                   compound  numeric_readout
0  NC(=O)N1c2ccccc2C=Cc2ccccc21 [Carbamazepine]                1
1  O=C1NC(=O)C(c2ccccc2)(c2ccccc2)N1 [Phenytoin sodium]                1

[ask] Give Assigned classification CYP2B6 for this entry on CYP2B6: CC(C)NCC(O)c1ccc(NS(C)(=O)=O)cc1 (stereo not drawn) [Sotalol hydrochloride]
[reply] 0

* * *

Give measured Assigned classification CYP3A4 for each item. Keep answers brief.
- Tested on: CYP3A4
- Assay Protocol: CYP3A4 enzyme induction assay in cryopreserved HepaRG cells (midazolam probe, LC/MS); also: key: 1=Positive=inducer; 0=Negative=non-inducer
- Type: in vitro ADME, human
- Measurement Parameters: HepaRG; Lab 1; batch 35
Where a name gives a salt, the structure may show the parent alone.

>>> df
                                   compound  result
0  COc1ccc2[nH]c([S+]([O-])Cc3ncc(C)c(OC)c3C)nc2c1 (stereo not drawn)       0
1  COc1ccccc1Oc1c(NS(=O)(=O)c2ccc(C(C)(C)C)cc2)nc(-c2ncccn2)nc1OCCO [Bosentan hydrate]       1
2  NC(=O)N1c2ccccc2C=Cc2ccccc21 [Carbamazepine]       1
3  CC(C)NCC(O)c1ccc(NS(C)(=O)=O)cc1 (stereo not drawn) [Sotalol hydrochloride]       0
4  COCCc1ccc(OCC(O)CNC(C)C)cc1 (stereo not drawn)       0

Next, consider the following compound.
[ask] Print CYP3A4 Assigned classification CYP3A4 for O=C1NC(=O)C(c2ccccc2)(c2ccccc2)N1 [Phenytoin sodium] .
[reply] 1

* * *

- Test system: CYP1A2
- Assay Protocol: CYP1A2 enzyme induction assay in cryopreserved HepaRG cells (phenacetin probe, LC/MS); also: key: 1=Positive=inducer; 0=Negative=non-inducer
- Type: in vitro ADME, human
- Measurement Parameters: HepaRG; Lab 3; batch 35
Where a name gives a salt, the structure may show the parent alone.
Answer each item with its documented Assigned classification CYP1A2.
Answers are plain numbers.

Please review the entries below; each comes with its answer.
Molecule	Assigned classification CYP1A2
CO[C@H]1/C=C/O[C@@]2(C)Oc3c(C)c(O)c4c(O)c(c(/C=N/N5CCN(C)CC5)c(O)c4c3C2=O)NC(=O)/C(C)=C\C=C\[C@H](C)[C@H](O)[C@@H](C)[C@@H](O)[C@@H](C)[C@H](OC(C)=O)[C@@H]1C	1
CC(C)NCC(O)c1ccc(NS(C)(=O)=O)cc1 (stereo not drawn) [Sotalol hydrochloride]	0

Query molecule follows.
[ask] Note down Assigned classification CYP1A2 recorded for COc1ccccc1Oc1c(NS(=O)(=O)c2ccc(C(C)(C)C)cc2)nc(-c2ncccn2)nc1OCCO [Bosentan hydrate]
[reply] 1

* * *

- System: CYP2B6
- Assay Protocol: CYP2B6 enzyme induction assay in cryopreserved primary human hepatocytes (PHH)
- Type: in vitro ADME
- Measurement Parameters: CYP2B6, PHH
Kindly state F2 for each of the entries shown.
One number for each entry, in µM.

Molecule	Tested On	Numeric Readout
O=C1C(CC[S+]([O-])c2ccccc2)C(=O)N(c2ccccc2)N1c1ccccc1 (centres unmarked)	CYP2B6	33

Let us move to another entry and its F2.
[ask] Please give the documented F2 of O=C1Nc2ccc(Cl)cc2[C@@](C#CC2CC2)(C(F)(F)F)O1
[reply] 4.69

* * *

- Tested on: CYP3A4
- Assay Protocol: CYP3A4 enzyme induction assay in cryopreserved primary human hepatocytes (PHH)
- Measurement Parameters: PHH; Lab 2; batch 8 0 8
Counter-ions that a name gives are not always drawn.
Measured Attribute: Assigned classification CYP3A4
One number for each entry.

>>> df
                                   compound  numeric_readout
0  NC(=O)N1c2ccccc2C=Cc2ccccc21 [Carbamazepine]                1

Batch request: Assigned classification CYP3A4 for each of the following compounds.
1. O=C1NC(=O)C(c2ccccc2)(c2ccccc2)N1 [Phenytoin sodium]
2. COc1ccc2[nH]c([S+]([O-])Cc3ncc(C)c(OC)c3C)nc2c1 (stereo not shown) [Omeprazole]
3. CC(C)NCC(O)c1ccc(NS(C)(=O)=O)cc1 (stereo not shown) [Sotalol hydrochloride]
4. COCCc1ccc(OCC(O)CNC(C)C)cc1 (stereo not shown) [Metoprolol]
5. COc1ccccc1Oc1c(NS(=O)(=O)c2ccc(C(C)(C)C)cc2)nc(-c2ncccn2)nc1OCCO [Bosentan hydrate]
6. O=C1Nc2ccc(Cl)cc2[C@@](C#CC2CC2)(C(F)(F)F)O1 [Efavirenz]

[reply]
[1, 0, 0, 0, 1, 1]

* * *

So I've got a bunch of compounds here, and I need their Assigned classification CYP2B6 values.
- Tested on: CYP2B6
- Assay Protocol: CYP2B6 enzyme induction assay in cryopreserved HepaRG cells (bupropion probe, LC/MS); also: key: 1=Positive=inducer; 0=Negative=non-inducer
- Format: in vitro ADME, human
- Measurement Parameters: HepaRG; Lab 3; batch 35
Where a name gives a salt, the structure may show the parent alone.

Worked cases, answers included:
Compound	Assigned classification CYP2B6
CO[C@H]1/C=C/O[C@@]2(C)Oc3c(C)c(O)c4c(O)c(c(/C=N/N5CCN(C)CC5)c(O)c4c3C2=O)NC(=O)/C(C)=C\C=C\[C@H](C)[C@H](O)[C@@H](C)[C@@H](O)[C@@H](C)[C@H](OC(C)=O)[C@@H]1C	0
COCCc1ccc(OCC(O)CNC(C)C)cc1 (stereo not shown)	0
COc1ccccc1Oc1c(NS(=O)(=O)c2ccc(C(C)(C)C)cc2)nc(-c2ncccn2)nc1OCCO [Bosentan hydrate]	1

Give Assigned classification CYP2B6 for each listed item.
1. COc1ccc2[nH]c([S+]([O-])Cc3ncc(C)c(OC)c3C)nc2c1 (stereo not shown)
2. NC(=O)N1c2ccccc2C=Cc2ccccc21 [Carbamazepine]
3. CC(C)NCC(O)c1ccc(NS(C)(=O)=O)cc1 (stereo not shown) [Sotalol hydrochloride]
4. O=C1NC(=O)C(c2ccccc2)(c2ccccc2)N1 [Phenytoin sodium]

[reply]
1: 0; 2: 1; 3: 0; 4: 1

Origin of the recorded values: paper PMC6718736
